- assay.details: AUC in Sprague-Dawley rat at 3 mg/kg, iv by LC-MS/MS analysis
- Format: ADME, organism-based
- condition.details: in vivo
readout.name: AUC (ng·h/mL)
Numbers only here, please. The scale is ng·h/mL.

Memo: COc1ccc(N(CC(F)(F)F)S(=O)(=O)[C@H]2C[C@H]3O[C@@H]2C(c2ccc(OCCN4CCCC4)cc2)=C3c2ccc(O)cc2)cc1 (relative stereo) , reported AUC: 1080

---

- target.of.assay: Estrogen receptor (Homo sapiens)
- assay.details: Induction of ERalpha protein degradation in human MCF7 cells assessed as ERalpha protein level at 10 uM incubated for 20 hrs by Western blot analysis relative to control
- Format: cell-based
Flag rule - Activity less than 80% flags Fulfilled; the remaining entries get Not fulfilled.

Reference set, count: 3
| compound | classification |
| --- | --- |
| CCN(c1ccccc1)S(=O)(=O)[C@H]1C[C@H]2O[C@@H]1C(c1ccc(OCCCCCCCCCCC(=O)O)cc1)=C2c1ccc(O)cc1 (relative stereo) | Fulfilled |
| CCN(c1ccc(OCCCCCCC(=O)O)cc1)S(=O)(=O)[C@H]1C[C@H]2O[C@@H]1C(c1ccc(O)cc1)=C2c1ccc(O)cc1 (relative stereo) | Not fulfilled |
| CCN(c1ccc(OCCCCCCCCCCC(=O)O)cc1)S(=O)(=O)[C@H]1C[C@H]2O[C@@H]1C(c1ccc(O)cc1)=C2c1ccc(O)cc1 (relative stereo) | Fulfilled |

Task: Identify whether the compound CCN(c1ccccc1)S(=O)(=O)[C@H]1C[C@H]2O[C@@H]1C(c1ccc(OCC(O)CO)cc1)=C2c1ccc(O)cc1 (relative stereo) records Activity below 80%.
Output: Not fulfilled

Task: Identify whether the compound O=S(=O)([C@H]1C[C@H]2O[C@@H]1C(c1ccc(OCC(O)CO)cc1)=C2c1ccc(O)cc1)N(CC(F)(F)F)c1ccc(Cl)cc1 (relative stereo) records Activity below 80%.
Output: Fulfilled

Task: Identify whether the compound COc1ccc(N(CC(F)(F)F)S(=O)(=O)[C@H]2C[C@H]3O[C@@H]2C(c2ccc(OCCCCCCCC(=O)O)cc2)=C3c2ccc(O)cc2)cc1 (relative stereo) records Activity below 80%.
Output: Fulfilled

Task: Identify whether the compound CCN(c1ccc(OCCN2CCCCC2)cc1)S(=O)(=O)[C@H]1C[C@H]2O[C@@H]1C(c1ccc(O)cc1)=C2c1ccc(O)cc1 (relative stereo) records Activity below 80%.
Output: Not fulfilled

Data provenance is ChEMBL document CHEMBL4346693.
